Test system: Candida albicans
RUN_DESCRIPTION: Antifungal activity against Candida albicans MTCC 227 at 50 ug/ml by paper disk diffusion method
Assay type: functional
RUN_CONDITIONS: read-out: DIZ
MEASUREMENT_NAME: zone of inhibition at 50 µg/mL (mm)
Your answer should be a plain number; it is taken to be in mm.

stdin: Return zone of inhibition at 50 µg/mL for the following compound: CCCCCN(CCCCC)CC(=O)Nn1c(S)nnc1-c1ccc(OC)cc1
stdout: 11.3

stdin: // fetch zone of inhibition at 50 µg/mL given entry CCCCN(C)CC(=O)Nn1c(S)nnc1-c1ccc(OC)cc1
stdout: 12.2

stdin: Provide only the value of recorded zone of inhibition at 50 µg/mL for CCCCN(C)CC(=O)Nn1c(S)nnc1-c1ccc(C)cc1
stdout: 9.23

stdin: Could you please provide reported zone of inhibition at 50 µg/mL for CCCN(CCC)CC(=O)Nn1c(S)nnc1-c1ccc(OC)cc1 ? Thanks!
stdout: 13.2

stdin: Find the measured zone of inhibition at 50 µg/mL of CCCN(CCC)CC(=O)Nn1c(S)nnc1-c1ccc(C)cc1 and report it.
stdout: 10.5

stdin: Dear colleague, please send me the reported zone of inhibition at 50 µg/mL for CCCCN(CCCC)CC(=O)Nn1c(S)nnc1-c1ccc(C)cc1 when you can.
stdout: 12.2

stdin: Hello, please tell me recorded zone of inhibition at 50 µg/mL for this one: CCN(CC)CC(=O)Nn1c(S)nnc1-c1ccc(C)cc1
stdout: 8.7

stdin: Check the records and state zone of inhibition at 50 µg/mL for CCCCCN(CCCCC)CC(=O)Nn1c(S)nnc1-c1ccc(C)cc1
stdout: 8.1

stdin: Using the record for CCN(CC)CC(=O)Nn1c(S)nnc1-c1ccc(OC)cc1 , state its measured zone of inhibition at 50 µg/mL.
stdout: 9.13

stdin: Output measured zone of inhibition at 50 µg/mL for this item: COc1ccc(-c2nnc(S)n2NC(=O)CN(C(C)C)C(C)C)cc1
stdout: 12.1

Source listed as ChEMBL document CHEMBL3045810.
